Tested on: U-251
Assay: NCI tumour cell line growth inhibition, 48 h
Calls of active or inactive are those of the source. Rule as the data show it: active = GI50 up to about 1.1 µM and inactive = higher.
Your answer must be one of the following: active, inactive

See these solved cases before continuing.
molecule	class-name
CC(Nc1cc(Cl)cc(Cl)c1)c1ccncc1 (stereo not given)	inactive
NC(=O)CCC(Nc1c2ccccc2[n+]([O-])c2ccccc12)C(=O)O (stereo not given)	inactive
CCCCCCCCCCCCCCCCCCCCCC(=O)Nc1ccn(C2OC(CO)C(O)C2O)c(=O)n1 (stereo not given)	inactive
CCCCc1c(OC)cc(O)c2c1C(=O)c1[nH]c(C(=O)O)c(O)c(=O)c1C2=O	inactive
Cc1ccc(C(=O)N/N=C(\N=N\c2ccccc2[N+](=O)[O-])c2ccc(N(C)C)cc2)cc1	inactive

Dear colleague, could you share the recorded outcome for COc1cc2c(cc1OC)C(C1CC1)ON(C)CC2 (stereo not given) when you have a moment?
inactive

Dear colleague, could you share the recorded outcome for "CC(=NNC(=S)Nc1ccc(C)cc1)c1cccc(C(C)=NNC(=S)Nc2ccc(C)cc2)n1" when you have a moment?
inactive

Dear colleague, could you share the recorded outcome for "N#CCCC1(CCC#N)S(=O)(=O)OCCOS1(=O)=O" when you have a moment?
inactive

Dear colleague, could you share the recorded outcome for "Cc1cc2c(cc1C)[n+]([O-])c(NCCCN(C)C)c(C#N)[n+]2[O-]" when you have a moment?
inactive

----------
System: DU-145
Assay: NCI tumour cell line growth inhibition, 48 h
Calls of active or inactive are those of the source. Rule as the data show it: active = GI50 up to about 1.1 µM and inactive = higher.
Your answer must be one of the following: active, inactive

molecule	target-under-test	class-name
CCN(C(=O)N[C@H](C(=O)N[C@@H](C)C(=O)OC)C(C)C)c1ccccc1	DU-145	inactive
COC(C/C(=C/CO[Si](C(C)C)(C(C)C)C(C)C)C(=O)Nc1ccccc1I)OC	DU-145	inactive
CC(=O)OC1CCC2(C)C(=CCC3C2CCC2(C)C(C(C)C(=O)O)CCC32)C1 (centres undefined)	DU-145	inactive
COc1cc2c(cc1OC)C(C1CC1)ON(C)CC2 (centres undefined)	DU-145	inactive
c1ccc2c(c1)CN1CCCC1CN2 (centres undefined)	DU-145	inactive
Cc1nn(C(=O)c2ccccc2O)c2c1C(c1ccc(O)cc1)SC(=N)N2 (centres undefined)	DU-145	inactive
CC12CC3CC/C(=N\O)C(C1)C3(N1CCOCC1)C/C2=N/O (centres undefined)	DU-145	inactive
O=C(C/C(=N/O)c1cc(-c2ccccc2)no1)c1ccccc1	DU-145	inactive

Dear colleague, could you share the recorded outcome for "C[N+](C)(C)/N=C\c1ccc(O)c(O)c1" when you have a moment?
inactive

Dear colleague, could you share the recorded outcome for "O=C1/C(=C\c2c(-c3ccccc3)[nH]n(-c3ccccc3)c2=O)C(c2ccccc2)=NN1c1ccccc1" when you have a moment?
inactive

Dear colleague, could you share the recorded outcome for CC(C)CCCC(C)[C@H]1CC[C@H]2[C@@H]3CC[C@H]4C[C@@H](CCC=C(c5cc(Cl)c(O)c(C(=O)OC(C)C)c5)c5cc(Cl)c(O)c(C(=O)OC(C)C)c5)CC[C@]4(C)[C@H]3CC[C@]12C (some centres undefined) when you have a moment?
inactive

Dear colleague, could you share the recorded outcome for "N#Cc1c(O)nc2[nH]nc(/N=N\c3c(O)ccc4ccccc34)c2c1-c1ccc(Cl)cc1" when you have a moment?
active

Dear colleague, could you share the recorded outcome for "OCCn1cnc2c(SCc3ccccc3)ncnc21" when you have a moment?
inactive

Dear colleague, could you share the recorded outcome for C/C(=N\N)C(CN1CCOCC1)C(c1ccccc1)c1c(O)c2ccccc2oc1=O (centres undefined) when you have a moment?
inactive

Dear colleague, could you share the recorded outcome for "O=[N+]([O-])c1cc2ccc1OCc1cccc(n1)COc1ccc(cc1[N+](=O)[O-])/C=N\CCCCCCCC/N=C\2" when you have a moment?
inactive

Dear colleague, could you share the recorded outcome for "Nc1ccc(S(=O)(=O)c2ccc(/N=[N+](\[O-])c3ccc(S(=O)(=O)c4ccc(N)cc4)cc3)cc2)cc1" when you have a moment?
inactive

Dear colleague, could you share the recorded outcome for COC(=O)C1=C2Nc3ccccc3C23CCN2C(O)C4(CC5CC67CCOC6CCN6CCC8(c9cccc(OC)c9N(C4)C58O)C67)C4OCCC4(C1)C23 (centres undefined) when you have a moment?
inactive
